Consider the following binders; for each one, report its pKd.
- assayed-target: T1, Full-length human NT5E (recombinant, in-house) (human, UniProt P21589 27-549)
- T1 construct: also called hNT5E; hNT5EWT
- T1 sequence: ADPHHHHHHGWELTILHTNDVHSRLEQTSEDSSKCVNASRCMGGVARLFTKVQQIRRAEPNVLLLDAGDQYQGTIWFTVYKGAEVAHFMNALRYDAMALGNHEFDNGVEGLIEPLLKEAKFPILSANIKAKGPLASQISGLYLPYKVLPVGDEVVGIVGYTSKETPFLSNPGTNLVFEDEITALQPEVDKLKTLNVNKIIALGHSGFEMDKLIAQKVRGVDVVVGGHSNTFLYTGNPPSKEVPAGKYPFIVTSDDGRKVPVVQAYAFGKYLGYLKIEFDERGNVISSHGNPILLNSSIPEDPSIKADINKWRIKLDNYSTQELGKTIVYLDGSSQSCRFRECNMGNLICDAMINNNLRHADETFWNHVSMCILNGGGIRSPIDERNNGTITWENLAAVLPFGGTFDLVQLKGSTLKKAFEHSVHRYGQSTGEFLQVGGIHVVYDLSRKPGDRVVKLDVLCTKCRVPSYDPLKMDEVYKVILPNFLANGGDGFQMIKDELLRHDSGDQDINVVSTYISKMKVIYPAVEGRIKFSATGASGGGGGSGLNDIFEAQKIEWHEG
- experiment-notes: SPR, His-captured NT5E, no ATP
Note on pKd: it is the negative log10 of concentration, concentration in mol/L.

# input Answer with the recorded pKd for the binder listed here: 1789 AM42 Fab (Fab, V domains shown) VH: EVQLVESGGGLVQPGGSLRLSCAASGFNVSYSSIHWVRQAPGKGLEWVAKIRGGHQDTHYADSVKGRFTISADTSKNTAYLQMNSLRAEDTAVYYCARNYWGWYPFYYFAFDYWGQGTLVTV VL: DIQMTQSPSSLSASVGDRVTITCRASQSVSSAVAWYQQKPGKAPKLLIYSASSLYSGVPSRFSGSRSGTDFTLTISSLQPEDFATYYCQQGWDYPITFGQGTKVEIKR
# output 7.42

# input Answer with the recorded pKd for the binder listed here: 1789 Fab (Fab, V domains shown) VH: EVQLVESGGGLVQPGGSLRLSCAASGFNVSYSSIHWVRQAPGKGLEWVASISSSSGYTYYADSVKGRFTISADTSKNTAYLQMNSLRAEDTAVYYCARNYWGWYPFYYFAFDYWGQGTLVTV VL: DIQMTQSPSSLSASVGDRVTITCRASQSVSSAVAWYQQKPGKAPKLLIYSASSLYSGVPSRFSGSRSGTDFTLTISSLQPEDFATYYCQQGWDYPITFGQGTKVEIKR
# output 6.12

# input Answer with the recorded pKd for the binder listed here: 1789 AM39 Fab (Fab, V domains shown) VH: EVQLVESGGGLVQPGGSLRLSCAASGFNVSYSSIHWVRQAPGKGLEWVASIRGAGSDTRYADSVKGRFTISADTSKNTAYLQMNSLRAEDTAVYYCARNYWGWYPFYYFAFDYWGQGTLVTV VL: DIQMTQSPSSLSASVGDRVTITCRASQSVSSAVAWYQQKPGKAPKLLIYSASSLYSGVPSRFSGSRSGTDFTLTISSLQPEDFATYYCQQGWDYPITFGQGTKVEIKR
# output 7.46
